Experiment: Stability in pooled and cryopreserved rat hepatocytes assessed as half life at 1 uM measured for 90 mins by LC-MS/MS analysis
Assay type: ADME, cell-based, Hepatocyte
Where a SMILES comes first, the peptide text is derived from it. [ ]: non-standard residue; d: D form. ξ: configuration not given here. ξDip = NC(C(=O)O)C(c1ccccc1)c1ccccc1

compound: Cc1cc(=O)oc2cc(O)ccc12
half-life at 1 µM: 4 min
//
compound: NCCCC[C@H](NC(=O)C(NC(=O)[C@H](Cc1c[nH]c2ccccc12)NC(=O)[C@H](CCCCN)NC(=O)[C@H](CCCCN)NC(=O)[C@H](Cc1c[nH]c2ccccc12)NC(=O)[C@H](Cc1c[nH]c2ccccc12)NC(=O)[C@H](CCCCN)NC(=O)[C@@H](N)CCCCN)C(c1ccccc1)c1ccccc1)C(N)=O (stereo partly drawn) (H-KKWWKKW[ξDip]K-NH2)
half-life at 1 µM: 71 min
//
compound: Cc1ncc2n1-c1ccc(Cl)cc1C(c1ccccc1F)=NC2
half-life at 1 µM: 27 min

* * *

Assay: Cytotoxicity against human MRC5 cells assessed as inhibition of cell proliferation incubated for 4 hrs by MTS assay
Format: toxicity, cell-based
Where a SMILES comes first, the peptide text is derived from it. [ ]: non-standard residue; d: D form. ξ: configuration not given here. Bip = N[C@@H](Cc1ccc(-c2ccccc2)cc1)C(=O)O; ξBip = NC(Cc1ccc(-c2ccccc2)cc1)C(=O)O; ξDip = NC(C(=O)O)C(c1ccccc1)c1ccccc1
Here the recorded IC50 at 4 h is given for each entry.
readout: IC50 at 4 h (µM)

molecule: NCCCC[C@H](NC(=O)C(NC(=O)[C@H](Cc1c[nH]c2ccccc12)NC(=O)[C@H](CCCCN)NC(=O)[C@H](CCCCN)NC(=O)[C@H](Cc1c[nH]c2ccccc12)NC(=O)[C@H](Cc1c[nH]c2ccccc12)NC(=O)[C@H](CCCCN)NC(=O)[C@@H](N)CCCCN)C(c1ccccc1)c1ccccc1)C(N)=O (stereo not given in full) (H-KKWWKKW[ξDip]K-NH2)
units: µM
test-value: 9.2
--
molecule: NCCCC[C@H](NC(=O)[C@H](Cc1c[nH]c2ccccc12)NC(=O)[C@H](Cc1c[nH]c2ccccc12)NC(=O)[C@H](CCCCN)NC(=O)[C@H](CCCCN)NC(=O)[C@H](Cc1c[nH]c2ccccc12)NC(=O)[C@H](Cc1ccc(-c2ccccc2)cc1)NC(=O)[C@H](CCCCN)NC(=O)[C@@H](N)CCCCN)C(N)=O (H-KK[Bip]WKKWWK-NH2)
units: µM
test-value: 27.9
--
molecule: NCCCC[C@H](NC(=O)[C@H](Cc1c[nH]c2ccccc12)NC(=O)[C@H](Cc1c[nH]c2ccccc12)NC(=O)[C@H](CCCCN)NC(=O)[C@H](CCCCN)NC(=O)[C@H](Cc1c[nH]c2ccccc12)NC(=O)C(Cc1ccc(-c2ccccc2)cc1)NC(=O)[C@H](CCCCN)NC(=O)[C@@H](N)CCCCN)C(N)=O (stereo not given in full) (H-KK[ξBip]WKKWWK-NH2)
units: µM
test-value: 30.9
--
molecule: N=C(N)NCCC[C@H](NC(=O)[C@H](Cc1c[nH]c2ccccc12)NC(=O)[C@H](Cc1c[nH]c2ccccc12)NC(=O)[C@H](CCCNC(=N)N)NC(=O)[C@H](CCCNC(=N)N)NC(=O)C(NC(=O)[C@H](Cc1c[nH]c2ccccc12)NC(=O)[C@H](CCCNC(=N)N)NC(=O)[C@@H](N)CCCNC(=N)N)C(c1ccccc1)c1ccccc1)C(N)=O (stereo not given in full) (H-RRW[ξDip]RRWWR-NH2)
units: µM
test-value: 14.6
--
molecule: NCCCC[C@H](NC(=O)[C@H](Cc1c[nH]c2ccccc12)NC(=O)[C@H](CCCCN)NC(=O)[C@H](CCCCN)NC(=O)C(NC(=O)[C@H](Cc1c[nH]c2ccccc12)NC(=O)[C@H](CCCCN)NC(=O)[C@H](CCCCN)NC(=O)[C@@H](N)Cc1c[nH]c2ccccc12)C(c1ccccc1)c1ccccc1)C(N)=O (stereo not given in full) (H-WKKW[ξDip]KKWK-NH2)
units: µM
test-value: 28

* * *

Assay: Hemolytic activity in human red blood cells incubated for 1 hr by spectrophotometric microtiter plate reader method
Format: toxicity, cell-based, Erythrocyte
Where a SMILES comes first, the peptide text is derived from it. [ ]: non-standard residue; d: D form. ξ: configuration not given here. ξDip = NC(C(=O)O)C(c1ccccc1)c1ccccc1
readout: EC50 at 1 h

compound: NCCCC[C@H](NC(=O)C(NC(=O)[C@H](Cc1c[nH]c2ccccc12)NC(=O)[C@H](CCCCN)NC(=O)[C@H](CCCCN)NC(=O)[C@H](Cc1c[nH]c2ccccc12)NC(=O)[C@H](Cc1c[nH]c2ccccc12)NC(=O)[C@H](CCCCN)NC(=O)[C@@H](N)CCCCN)C(c1ccccc1)c1ccccc1)C(N)=O (stereo partly specified) (H-KKWWKKW[ξDip]K-NH2)
readout: EC50 at 1 h
test-value: > 695 µM

* * *

Experiment: Protein binding in human plasma assessed as bound fraction at 200 to 1000 ng/ml incubated for 20 hrs in presence of AEBSF by LC-MS/MS analysis
Type: ADME, cell-free
Conditions: dose 200-1000 ng/ml, read-out: PPB
Where a SMILES comes first, the peptide text is derived from it. [ ]: non-standard residue; d: D form. ξ: configuration not given here. ξDip = NC(C(=O)O)C(c1ccccc1)c1ccccc1

molecule: NCCCC[C@H](NC(=O)C(NC(=O)[C@H](Cc1c[nH]c2ccccc12)NC(=O)[C@H](CCCCN)NC(=O)[C@H](CCCCN)NC(=O)[C@H](Cc1c[nH]c2ccccc12)NC(=O)[C@H](Cc1c[nH]c2ccccc12)NC(=O)[C@H](CCCCN)NC(=O)[C@@H](N)CCCCN)C(c1ccccc1)c1ccccc1)C(N)=O (stereo partly specified) (H-KKWWKKW[ξDip]K-NH2)
fraction unbound at 20 h: > 0.2

* * *

Here the recorded IC50 is given for each entry.
Tested on: A20
Test: Cytotoxicity against mouse A20 lymphoma cells assessed as inhibition of cell proliferation incubated for 4 hrs by MTT assay
Format: functional, cell-based
Conditions: A20, 4 h
Where a SMILES comes first, the peptide text is derived from it. [ ]: non-standard residue; d: D form. ξ: configuration not given here. ξAla(9-anthryl) = NC(Cc1c2ccccc2cc2ccccc12)C(=O)O; ξBip = NC(Cc1ccc(-c2ccccc2)cc1)C(=O)O; ξDip = NC(C(=O)O)C(c1ccccc1)c1ccccc1; ξ1Nal = NC(Cc1cccc2ccccc12)C(=O)O
readout: IC50 (µM)

compound: NCCCC[C@H](NC(=O)[C@H](Cc1c[nH]c2ccccc12)NC(=O)[C@H](Cc1c[nH]c2ccccc12)NC(=O)[C@H](CCCCN)NC(=O)[C@H](CCCCN)NC(=O)C(Cc1cccc2ccccc12)NC(=O)[C@H](Cc1c[nH]c2ccccc12)NC(=O)[C@H](CCCCN)NC(=O)[C@@H](N)CCCCN)C(N)=O (stereo partly specified) (H-KKW[ξ1Nal]KKWWK-NH2)
readout: IC50
test-value: 24
//
compound: NCCCC[C@H](NC(=O)C(NC(=O)[C@H](Cc1c[nH]c2ccccc12)NC(=O)[C@H](CCCCN)NC(=O)[C@H](CCCCN)NC(=O)[C@H](Cc1c[nH]c2ccccc12)NC(=O)[C@H](Cc1c[nH]c2ccccc12)NC(=O)[C@H](CCCCN)NC(=O)[C@@H](N)CCCCN)C(c1ccccc1)c1ccccc1)C(N)=O (stereo partly specified) (H-KKWWKKW[ξDip]K-NH2)
readout: IC50
test-value: 8.3
//
compound: NCCCC[C@H](NC(=O)C(NC(=O)[C@H](Cc1c[nH]c2ccccc12)NC(=O)[C@H](CCCCN)NC(=O)[C@H](CCCCN)NC(=O)[C@H](Cc1c[nH]c2ccccc12)NC(=O)[C@H](Cc1c[nH]c2ccccc12)NC(=O)[C@@H](N)CCCCN)C(c1ccccc1)c1ccccc1)C(N)=O (stereo partly specified) (H-KWWKKW[ξDip]K-NH2)
readout: IC50
test-value: 13.5
//
compound: NCCCC[C@H](NC(=O)[C@H](Cc1c[nH]c2ccccc12)NC(=O)[C@H](Cc1c[nH]c2ccccc12)NC(=O)[C@H](CCCCN)NC(=O)[C@H](CCCCN)NC(=O)[C@H](Cc1c[nH]c2ccccc12)NC(=O)C(Cc1ccc(-c2ccccc2)cc1)NC(=O)[C@H](CCCCN)NC(=O)[C@@H](N)CCCCN)C(N)=O (stereo partly specified) (H-KK[ξBip]WKKWWK-NH2)
readout: IC50
test-value: 13
//
compound: NCCCC[C@H](NC(=O)[C@H](Cc1c[nH]c2ccccc12)NC(=O)[C@H](Cc1c[nH]c2ccccc12)NC(=O)[C@H](CCCCN)NC(=O)[C@H](CCCCN)NC(=O)C(Cc1c2ccccc2cc2ccccc12)NC(=O)[C@H](Cc1c[nH]c2ccccc12)NC(=O)[C@H](CCCCN)NC(=O)[C@@H](N)CCCCN)C(N)=O (stereo partly specified) (H-KKW[ξAla(9-anthryl)]KKWWK-NH2)
readout: IC50
test-value: 9.3
//
compound: N=C(N)NCCC[C@H](NC(=O)[C@H](Cc1c[nH]c2ccccc12)NC(=O)[C@H](Cc1c[nH]c2ccccc12)NC(=O)[C@H](CCCNC(=N)N)NC(=O)[C@H](CCCNC(=N)N)NC(=O)C(NC(=O)[C@H](Cc1c[nH]c2ccccc12)NC(=O)[C@H](CCCNC(=N)N)NC(=O)[C@@H](N)CCCNC(=N)N)C(c1ccccc1)c1ccccc1)C(N)=O (stereo partly specified) (H-RRW[ξDip]RRWWR-NH2)
readout: IC50
test-value: 6.7
